Record set of Ki for target or system Coagulation factor X (Homo sapiens).
Numbers only, in µM.

Consider the reported Ki for these compounds:
{"Entry smiles": "CC(C)N1CCC(NC(=O)c2cc3cccnc3n2Cc2cc(-c3ccc(Cl)s3)on2)CC1", "Ki [µM]": 0.004}
{"Entry smiles": "CC(C)N1CCC(NC(=O)c2nn(Cc3cc(-c4ccc(Cl)s4)on3)c3ccccc23)CC1", "Ki [µM]": 0.009}

Please state, for each entry, its recorded Ki.
1. CC(C)N1CCC(NC(=O)c2ccn(Cc3cc(-c4ccc(Cl)s4)on3)n2)CC1
2. CC(C)N1CCC(NC(=O)c2cn(Cc3cc(-c4ccc(Cl)s4)on3)c3ncccc23)CC1
3. CC(C)N1CCC(NC(=O)c2ccnn2Cc2cc(-c3ccc(Cl)s3)on2)CC1

### Response
1: 0.037; 2: 0.065; 3: 0.052
